biological target: T1, 2PT-NBD1 (human CFTR nucleotide-binding domain 1, residues 387-646, with S492P, A534P, I539T) (human, UniProt P13569 388-646, biotinylated for the ELISA (sites not given)); experiment: isothermal titration calorimetry, nanobody titrated into 2PT-NBD1 at 20 °C, one-site model
T1 construct: N-terminal His6-SUMO tag removed with Ulp1; In the T2a-T4 and T27 crystals the domain was cut by papain or subtilisin
T1 sequence (P13569 388-646 V470M/S492P/A534P/I539T limits assumed): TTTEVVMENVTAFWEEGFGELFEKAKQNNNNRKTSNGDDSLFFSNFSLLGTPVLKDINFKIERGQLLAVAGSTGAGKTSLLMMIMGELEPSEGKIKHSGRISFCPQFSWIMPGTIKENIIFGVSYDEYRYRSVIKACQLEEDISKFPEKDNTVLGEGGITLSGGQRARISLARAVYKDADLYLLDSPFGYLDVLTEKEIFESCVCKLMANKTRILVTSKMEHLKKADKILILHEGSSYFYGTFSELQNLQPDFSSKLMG
Collected pKd values appear next to each entry.
Answer as the number alone; pKd is minus log10 of concentration in mol/L.

Nanobody T27 (VHH, not shown: small tags and cut ends, Llama nanobody; also called NbT27; T27 Nb) VHH: QVQLQESGGGLEQPGGSLRLSCATSGVIFGINAMGWYRQAPGKQRELVATFTSGGSTNYADFVEGRFTISRDNAKNTVYLQMNGLRPEDTAVYYCHATVVVSRYGLTYDYWGQGTQVTVSS : 7.60
Nanobody G3a (VHH, not shown: small tags and cut ends, Llama nanobody, non-stabilizing; also called Nb G3a; G3a Nb) VHH: QVQLQESGGGLVQAGGSLRLSCTASGRAFSWYVMGWFRQAPGKEREFVATVSGNGSRRDYADSVKGRFTISRDNAKNTVYLQMNSLKPEDTAVYYCAASSTYYYTDPEKYDYWGQGTQVTVSS : 5.96
Nanobody T2a (VHH, not shown: small tags and cut ends, Llama nanobody; also called Nb T2a; T2a Nb) VHH: QVQLQESGGGLVQAGGSLRLSCAASGSIFRIDAMGWYRQAPGKQRELVAHSTSGGSTDYADSVKGRFTISRDNAKNTVYLQMNSLKPEDTAVYYCNADVRTRWYASNNYWGQGTQVTVSS : 7.27

response.value for Nanobody T8 (VHH, not shown: small tags and cut ends, Llama nanobody; also called Nb T8; T8 Nb) VHH: QVQLQESGGGLVQPGGSLRLSCAASGSTSSINAMGWYRQAPGKQREPVAISSSGGDTRYAEPVKGRFTISRDNAQNKVYLQMNSLKPEDTAVYYCWLNWGRTSVNSWGQGTQVTVSS (field: pKd) = 7.41
